- Test system: Setaia fabei (SETFA)
- MEASUREMENT NOTES: Post-emergence efficacy, glasshouse spray test
- Assay type: in vivo
- CONDITION: Setaria faberi, post-emergence, 312 h; Application Rate 500 g/Ha; evaluated after 13 days; read-out: Control of weed species after post-emergence application, SETFA (100=total damage to plant; 0=no damage to plant)
Label key: yes (1) means pest or weed control at 500 g/ha under 80%; no (0) means pest or weed control at 500 g/ha of 80% or more.

{"COMPOUND": "Cn1nnc(-c2cc[n+](CCS(=O)(=O)O)nc2)n1", "DISCRETE LABEL": "no (0)"}
{"COMPOUND": "Cc1coc(-c2cc[n+](CCOS(=O)(=O)[O-])nc2)n1", "DISCRETE LABEL": "yes (1)"}
{"COMPOUND": "Cc1nnc(-c2cc[n+](CCC(=O)O)nc2)s1", "DISCRETE LABEL": "no (0)"}
{"COMPOUND": "CC(C)(C)COS(=O)(=O)CC[n+]1ccc(-c2cocn2)cn1 [Compound A21, 2,2,2-trifluoroacetate]", "DISCRETE LABEL": "yes (1)"}
{"COMPOUND": "CCOP(=O)(O)CC[n+]1ccc(-c2ncco2)cn1", "DISCRETE LABEL": "yes (1)"}
{"COMPOUND": "CC(C[n+]1ccc(-c2ncco2)cn1)NS(=O)(=O)[O-] (stereo not drawn)", "DISCRETE LABEL": "yes (1)"}
{"COMPOUND": "O=S(=O)([O-])NCC[n+]1ccc(-c2ncco2)cn1", "DISCRETE LABEL": "yes (1)"}

###

- Tested on: Digitaria sanguinalis (DIGSA)
- MEASUREMENT NOTES: Post-emergence efficacy, glasshouse spray test
- Assay type: in vivo
- CONDITION: Digitaria sanguinalis, post-emergence, 312 h; Application Rate 500 g/Ha; evaluated after 13 days; read-out: Control of weed species after post-emergence application, DIGSA (100=total damage to plant; 0=no damage to plant)
- Procedure: Seeds of a variety of test species were sown in standard soil in pots. […] After 13 days the test was evaluated (100=total damage to plant; 0=no damage to plant). […]
MEASURE NAME: pest or weed control at 500 g/ha (%)

{"QUERY SMILES": "O=S(=O)([O-])OCC[n+]1ccc(-c2ncco2)cn1", "U": "%", "MEASURED RESULT": 90}
{"QUERY SMILES": "COc1cc(-c2cc[n+](CCS(=O)(=O)[O-])nc2)sn1", "U": "%", "MEASURED RESULT": 30}
{"QUERY SMILES": "O=C(O)c1cccc(C[n+]2ccc(-c3ncco3)cn2)c1", "U": "%", "MEASURED RESULT": 50}
{"QUERY SMILES": "O=P(O)(O)CCC[n+]1ccc(-c2ncco2)cn1", "U": "%", "MEASURED RESULT": 60}
{"QUERY SMILES": "Cn1nc(C(F)(F)F)cc1-c1cc[n+](CCS(=O)(=O)[O-])nc1", "U": "%", "MEASURED RESULT": 30}

###

- System: Digitaria sanguinalis (DIGSA)
- MEASUREMENT NOTES: Post-emergence efficacy, glasshouse spray test
- Assay type: in vivo
- CONDITION: Digitaria sanguinalis, post-emergence, 312 h; Application Rate 500 g/Ha; evaluated after 13 days; read-out: Control of weed species after post-emergence application, DIGSA (100=total damage to plant; 0=no damage to plant)
Label key: yes (1) means pest or weed control at 500 g/ha under 60%; no (0) means pest or weed control at 500 g/ha of 60% or more.

{"MOLECULE": "O=S(=O)([O-])CC[n+]1ccc(-c2cscn2)cn1", "DISCRETE LABEL": "no (0)"}
{"MOLECULE": "O=C(O)CC[n+]1ccc(-c2ncsn2)cn1 [Compound A142, 2,2,2-trifluoroacetate]", "DISCRETE LABEL": "no (0)"}
{"MOLECULE": "O=C(O)CC[n+]1ccc(-c2ccco2)cn1", "DISCRETE LABEL": "yes (1)"}
{"MOLECULE": "Cc1csc(-c2cc[n+](CCS(=O)(=O)[O-])nc2)n1", "DISCRETE LABEL": "yes (1)"}
{"MOLECULE": "O=C(O)CC[n+]1ccc(-c2cncs2)cn1", "DISCRETE LABEL": "no (0)"}
{"MOLECULE": "Cc1coc(-c2cc[n+](CCS(=O)(=O)[O-])nc2)n1", "DISCRETE LABEL": "no (0)"}
{"MOLECULE": "O=C(O)CC[n+]1ccc(-c2ncco2)cn1", "DISCRETE LABEL": "no (0)"}

###

- Tested on: Digitaria sanguinalis (DIGSA)
- MEASUREMENT NOTES: Post-emergence efficacy, glasshouse spray test
- Type: in vivo
- CONDITION: Digitaria sanguinalis, post-emergence, 312 h; Application Rate 500 g/Ha; evaluated after 13 days; read-out: Control of weed species after post-emergence application, DIGSA (100=total damage to plant; 0=no damage to plant)

{"QUERY SMILES": "OCCC[n+]1ccc(-c2ncco2)cn1", "pest or weed control at 500 g/ha / %": 80}
{"QUERY SMILES": "N[C@@H](CC[n+]1ccc(-c2ncco2)cn1)C(=O)O", "pest or weed control at 500 g/ha / %": 90}
{"QUERY SMILES": "Cn1nnc(-c2cc[n+](CCC(=O)O)nc2)n1", "pest or weed control at 500 g/ha / %": 70}
{"QUERY SMILES": "Cn1nccc1-c1cc[n+](CCCS(=O)(=O)[O-])nc1", "pest or weed control at 500 g/ha / %": 30}

###

- System: Digitaria sanguinalis (DIGSA)
- MEASUREMENT NOTES: Post-emergence efficacy, glasshouse spray test
- Format: in vivo
- CONDITION: Digitaria sanguinalis, post-emergence, 312 h; Application Rate 500 g/Ha; evaluated after 13 days; read-out: Control of weed species after post-emergence application, DIGSA (100=total damage to plant; 0=no damage to plant)
Catalogue of pest or weed control at 500 g/ha values

{"COMPOUND": "O=S(=O)([O-])N1CCCC1C[n+]1ccc(-c2ncco2)cn1 (centres unmarked)", "pest or weed control at 500 g/ha [%]": 70}
{"COMPOUND": "Cc1cc(-c2cc[n+](CCS(=O)(=O)[O-])nc2)sn1", "pest or weed control at 500 g/ha [%]": 50}
{"COMPOUND": "O=C(O)CC[n+]1ccc(-c2ccno2)cn1", "pest or weed control at 500 g/ha [%]": 40}
{"COMPOUND": "O=S(=O)([O-])CC[n+]1ccc(-c2nc(C(F)(F)F)co2)cn1", "pest or weed control at 500 g/ha [%]": 70}
{"COMPOUND": "O=C(O)CC[n+]1ccc(-c2cccs2)cn1", "pest or weed control at 500 g/ha [%]": 0}
{"COMPOUND": "COC(=O)c1ccccc1C[n+]1ccc(-c2ncco2)cn1", "pest or weed control at 500 g/ha [%]": 30}
{"COMPOUND": "Cn1nnnc1-c1cc[n+](CCS(=O)(=O)O)nc1", "pest or weed control at 500 g/ha [%]": 60}
{"COMPOUND": "CCOC(=O)c1coc(-c2cc[n+](CCC(=O)O)nc2)n1", "pest or weed control at 500 g/ha [%]": 90}
{"COMPOUND": "Cc1nc(-c2cc[n+](CCS(=O)(=O)[O-])nc2)oc1C", "pest or weed control at 500 g/ha [%]": 50}
{"COMPOUND": "O=S(=O)([O-])CC[n+]1ccc(-c2ncsn2)cn1", "pest or weed control at 500 g/ha [%]": 100}
{"COMPOUND": "COC(=O)C[n+]1ccc(-c2ncn(C)n2)cn1", "pest or weed control at 500 g/ha [%]": 90}
{"COMPOUND": "CC(C)(C)COS(=O)(=O)CC[n+]1ccc(-c2cocn2)cn1 [Compound A21, 2,2,2-trifluoroacetate]", "pest or weed control at 500 g/ha [%]": 10}
{"COMPOUND": "Cn1ncnc1-c1cc[n+](CCS(=O)(=O)[O-])nc1", "pest or weed control at 500 g/ha [%]": 70}
{"COMPOUND": "CC(C)(CC(=O)O)[n+]1ccc(-c2ncco2)cn1", "pest or weed control at 500 g/ha [%]": 70}
{"COMPOUND": "CS(=O)(=O)[N-]C(=O)C[n+]1ccc(-c2ncco2)cn1", "pest or weed control at 500 g/ha [%]": 60}
{"COMPOUND": "Cn1cc(-c2cc[n+](CCC(=O)O)nc2)nn1", "pest or weed control at 500 g/ha [%]": 60}
{"COMPOUND": "Cn1nncc1-c1cc[n+](CCC(=O)O)nc1", "pest or weed control at 500 g/ha [%]": 100}
{"COMPOUND": "O=S(=O)([O-])CC[n+]1ccc(-c2ncco2)cn1", "pest or weed control at 500 g/ha [%]": 70}
{"COMPOUND": "Nc1nnc(-c2cc[n+](CCC(=O)O)nc2)s1", "pest or weed control at 500 g/ha [%]": 90}
{"COMPOUND": "O=S(=O)([O-])CC[n+]1ccc(-c2ccno2)cn1", "pest or weed control at 500 g/ha [%]": 90}

From: patent US20210053957A1
